test-target: PLS1
procedure-text: pooled miR-30 sensor sort-seq; sequence = guide strand; further: reference of the scale not given here
particulars: shRNA
Kindly return y if reported sensor-assay potency score (higher = more potent) is no lower than -0.6; return n if it is lower.

The examples below pair each entry with its known result.
- TTTGCTTTTTAATTCTTGCATT: n
- TTAGTGACACAAACTCTTCAAA: n
- TAAATTTTCAGAAATAGTGAAT: y

Q: Check if sensor-assay potency score (higher = more potent) >= -0.6 (inclusive). Item: `TTTATCTGCTTCTTGAAGCATG`
A: y

Q: Hi team, for `TTCCTTGCTCTCTCCTTCCAGT` , is the recorded sensor-assay potency score (higher = more potent) at or above -0.6?
A: y

Q: Could you verify whether the entry `ATTCCTTTCATTTAGGTCCTGC` shows sensor-assay potency score (higher = more potent) of no less than -0.6?
A: y

---

test-target: KRTAP10-2
procedure-text: pooled miR-30 sensor sort-seq; sequence = guide strand
particulars: shRNA
readout-name: sensor-assay potency score (higher = more potent)

Worked cases, answers included:
• TGGCCTGAGGAAAAGCTGCAGG = -1.08
• ACACAGCAGATGGACTTGCAGC = -1.45
• TAGACTGCTGGCAGCACGGAGA = -0.939

Q: Quick one: sensor-assay potency score (higher = more potent) for `AACAGGTACACAGCAGATGGAC` ?
A: -1.3

Q: Give its sensor-assay potency score (higher = more potent) value. Item: `CAGCACACAGCTTTGCAGCAGA`
A: -2.3

Q: Quick check: sensor-assay potency score (higher = more potent) of `AAGAGGATGACTCAGAGCAGGT` ?
A: -1.29

---

Catalogue of sensor-assay potency score (higher = more potent) values
test-target: RASGRP2
procedure-text: pooled miR-30 sensor sort-seq; sequence = guide strand
particulars: shRNA
Give the figure by itself; no unit, no explanation.

The following sequences have reported results that may help.
- TACTGATCCAGAGACACCGTGA: 0.0565
- TCAAACAACAGGGACATCTTGC: -0.201
- TAGTCCTGAAACAGGATCTTGC: -0.808
- TTGTTGGTAGATGTGGAGCAGC: -1.12
- TCTATGTCGATTAGGCTGCTGT: -0.615

Q: GET /values?readout=sensor-assay potency score (higher = more potent)&system=RASGRP2&item= `TTGGTAGATGTGGAGCAGCTTG`
A: -1.27

Q: I'm curious: which sensor-assay potency score (higher = more potent) was measured for `TAGCAGAGCCTTCAGCTCCTTG` tested on RASGRP2?
A: -0.951

---

test-target: FAM22F
procedure-text: pooled miR-30 sensor sort-seq; sequence = guide strand
particulars: shRNA
sensor-assay potency score (higher = more potent) below -0.7 gives n; sensor-assay potency score (higher = more potent) at or above it gives y.

• AAGGACTTGAGTCCAACCTGGC = y
• TTCTTGGACTTGCTGGCAGGAG = n
• AAGCACAGCAGGGTCTTCGGAC = n
• TTGACAGGAGACTCTCCAGGGA = y
• TCTCTCGCTGCTTCTTGGCCAG = n

Turning to the following sequence.
Q: For this sequence, is measured sensor-assay potency score (higher = more potent) -0.7 or higher? `TGACAGGAGACTCTCCAGGGAG`
A: n
